Tested on: human colon cancer cells SW620
Test: MTT assay, tumor cell growth inhibition, SW620
Type: cell-based
Settings: SW-620, 48 hours
Metric: IC50 (µM)

a: CCC(C)SSc1nc(N)nc2c1ncn2C1C[C@H](O)[C@@H](CO)O1 (some centres unmarked) [Compound A, 6-(sec-butyldithio)-2′-deoxyguanosine]
b: CCC(C)SSc1ncc[nH]1 (centres unmarked) [PX-12, 1-methylpropyl-2-imidazolyl disulfide, reference compound]
Inquiry: Pick one: a or b . Which one has the lower reported IC50? Write down the label attached to your selection.
Reply text: a
(a: 0.21 µM, b: 1.68 µM)

====

Test: Blood biochemical analysis and HE staining of tissues in HCT116 tumor-bearing nude mice
Type: in vivo
Settings: tail vein once every two days, 12 times, blood 48 hours after the last treatment
Method: We took human colon cancer cell line HCT116 as the research object, and established a subcutaneous transplanted tumor model of human colon cancer in 32 immunodeficient nude mice. […] The tumor volume was calculated by taking the length of the tumor as the longest diameter and the width as the corresponding vertical diameter, and the tumor volume V=(length×width^2) mm^3/2. […]
Metric: Potassium ion (mmol/L)

1. CC(C)SSc1nc(N)nc2c1ncn2[C@H]1C[C@H](O)[C@@H](CO)O1 [D, 6-(isopropyldithio)-2′-deoxyguanosine] :: 6.43
2. Nc1nc2c(ncn2[C@H]2C[C@H](O)[C@@H](CO)O2)c(=S)[nH]1 [Compound 6-thio-dG, 6-thio-2′-deoxyguanosine, reference compound] :: 7.18
3. Nc1nc(SSCc2ccc(F)cc2)c2ncn(C3C[C@H](O)[C@@H](CO)O3)c2n1 (stereo partly drawn) [B] :: 6.26

====

Assay: Blood biochemical analysis and HE staining of tissues in HCT116 tumor-bearing nude mice
Format: in vivo
Details: tail vein once every two days, 12 times, blood 48 hours after the last treatment
Metric: Creatinine (µmol/L)

Previously resolved entries follow.
1) CC(C)SSc1nc(N)nc2c1ncn2[C@H]1C[C@H](O)[C@@H](CO)O1 [D, 6-(isopropyldithio)-2′-deoxyguanosine] :: -3.0
2) Nc1nc(SSCc2ccc(F)cc2)c2ncn(C3C[C@H](O)[C@@H](CO)O3)c2n1 (stereo partly drawn) [B] :: 8.67
3) CC(C)(C)SSc1nc(N)nc2c1ncn2C1C[C@H](O)[C@@H](CO)O1 (stereo partly drawn) [Compound C, 6-(tert-butyldithio)-2′-deoxyguanosine] :: 6.67
4) CCC(C)SSc1nc(N)nc2c1ncn2C1C[C@H](O)[C@@H](CO)O1 (stereo partly drawn) [Compound A, 6-(sec-butyldithio)-2′-deoxyguanosine] :: -0.80

a: Nc1nc2c(ncn2[C@H]2C[C@H](O)[C@@H](CO)O2)c(=S)[nH]1 [Compound 6-thio-dG, 6-thio-2′-deoxyguanosine, reference compound]
b: CCC(C)SSc1ncc[nH]1 (stereo not drawn) [PX-12, 1-methylpropyl-2-imidazolyl disulfide, reference compound]
Inquiry: Smaller Creatinine value, a vs b ? // respond with label for picked entry
Reply text: b

====

Assay: Blood biochemical analysis and HE staining of tissues in HCT116 tumor-bearing nude mice
Assay type: in vivo
Conditions: tail vein once every two days, 12 times, blood 48 hours after the last treatment
Metric: Potassium ion (mmol/L)

1) CCC(C)SSc1ncc[nH]1 (stereo not drawn) [PX-12, 1-methylpropyl-2-imidazolyl disulfide, reference compound] :: 7.64
2) CC(C)(C)SSc1nc(N)nc2c1ncn2C1C[C@H](O)[C@@H](CO)O1 (stereo partly drawn) :: 6.17
3) CCC(C)SSc1nc(N)nc2c1ncn2C1C[C@H](O)[C@@H](CO)O1 (stereo partly drawn) [Compound A, 6-(sec-butyldithio)-2′-deoxyguanosine] :: 7.56

====

Tested on: human melanoma cells A375
Assay: MTT assay, tumor cell growth inhibition, A375
Format: cell-based
Details: A-375, 48 hours
Metric: IC50 (nM)

1) CC(C)SSc1nc(N)nc2c1ncn2[C@H]1C[C@H](O)[C@@H](CO)O1 :: 370
2) CCC(C)SSc1nc(N)nc2c1ncn2C1C[C@H](O)[C@@H](CO)O1 (stereo partly drawn) [Compound A, 6-(sec-butyldithio)-2′-deoxyguanosine] :: 600
3) Nc1nc(SSCc2ccc(F)cc2)c2ncn(C3C[C@H](O)[C@@H](CO)O3)c2n1 (stereo partly drawn) :: 520

====

Assay: Blood biochemical analysis and HE staining of tissues in HCT116 tumor-bearing nude mice
Format: in vivo
Conditions: tail vein once every two days, 12 times, blood 48 hours after the last treatment
Metric: BUN (mmol/L)

1. Nc1nc2c(ncn2[C@H]2C[C@H](O)[C@@H](CO)O2)c(=S)[nH]1 [Compound 6-thio-dG, 6-thio-2′-deoxyguanosine, reference compound] :: 11.5
2. CC(C)(C)SSc1nc(N)nc2c1ncn2C1C[C@H](O)[C@@H](CO)O1 (stereo partly drawn) :: 9.00
3. CCC(C)SSc1ncc[nH]1 (stereo not drawn) [PX-12, 1-methylpropyl-2-imidazolyl disulfide, reference compound] :: 8.10
4. CC(C)SSc1nc(N)nc2c1ncn2[C@H]1C[C@H](O)[C@@H](CO)O1 :: 8.80
5. Nc1nc(SSCc2ccc(F)cc2)c2ncn(C3C[C@H](O)[C@@H](CO)O3)c2n1 (stereo partly drawn) :: 14.8
6. CCC(C)SSc1nc(N)nc2c1ncn2C1C[C@H](O)[C@@H](CO)O1 (stereo partly drawn) [Compound A, 6-(sec-butyldithio)-2′-deoxyguanosine] :: 10.7

====

System: human colon cancer cells SW620
Experiment: MTT assay, tumor cell growth inhibition, SW620
Format: cell-based
Conditions: SW-620, 48 hours
Reported IC50 is given for each of the following compounds.

Reference set, count: 2
1) Nc1nc(SSCc2ccc(F)cc2)c2ncn(C3C[C@H](O)[C@@H](CO)O3)c2n1 (stereo partly drawn) [B] :: 1.71 µM
2) Nc1nc(Cl)nc2c1ncn2[C@H]1C[C@H](O)[C@@H](CO)O1 [Cladribine, reference compound] :: > 100 µM

Lab note: next compound to report on.
Inquiry: For Nc1nc2c(ncn2[C@H]2C[C@H](O)[C@@H](CO)O2)c(=S)[nH]1 [Compound 6-thio-dG, 6-thio-2′-deoxyguanosine, reference compound] , what is its reported IC50?
Reply text: > 100 µM
